Test system: MH60
PROCEDURE_DETAILS: Growth inhibition of IL6-dependent mouse MH60 cells after 72 hrs by MTT assay in presence of human recombinant IL6
Type: functional, cell-based
EXPERIMENTAL_CONTEXT: MH60, 72 h
pIC50: −log10 of the molar value.
Is pIC50 at least 5? Then yes. If not, no.

Answer whether pIC50 of C[C@]12CC[C@H](OC=O)C[C@H]1CC[C@@H]1[C@@H]2CC[C@]2(C)[C@@H]([C@@]34C=CC(=O)O[C@@H]3O4)C[C@H]3O[C@]132 is greater than or equal to 5.
yes

Answer whether pIC50 of CC(=O)O[C@H]1CC[C@@]2(C)[C@H](CC[C@@H]3[C@@H]2CC[C@]2(C)[C@@H]([C@@]45C=CC(=O)O[C@@H]4O5)C[C@H]4O[C@]342)C1 is greater than or equal to 5.
no

Quick check: does C[C@]12CC[C@H](O)C[C@H]1CC[C@@H]1[C@@H]2CC[C@]2(C)[C@@H](c3ccc(=O)oc3)CC[C@]12O [BUFALIN] have pIC50 greater than or equal to 5?
no

// inclusive: pIC50 at least 5? input: C[C@]12CC[C@H](O)C[C@H]1CC[C@@H]1[C@@H]2CC[C@]2(C)[C@@H]([C@]34C=CC(=O)O[C@H]3O4)C[C@H]3O[C@]132
no

State whether the measured pIC50 reaches 5, counting equality as reaching it, for CCCCC(=O)O[C@H]1CC[C@@]2(C)[C@H](CC[C@@H]3[C@@H]2CC[C@]2(C)[C@@H]([C@@]45C=CC(=O)O[C@@H]4O5)C[C@H]4O[C@]342)C1
yes
